Test system: MAP kinase cascade activation
Assay: Reporter activity reflecting MAP kinase cascade activation, corrected using an internal control (Elk1-GAL4 luciferase reporter in 293-EBNA cells)
Type: cell-based, human
Conditions: 25 ng/well expression plasmid; 293-EBNA cells; 24 hours
property: Reporter activity corrected with internal control, as a factor of null vector (S/B value)
Answer as a number with no unit attached.

>  <molecule>
30 (protein, listed as Homo sapiens) MDARWWAVVVLAAFPSLGAGGETPEAPPESWTQLWFFRFVVNAAGYASFMVPGYLLVQYFRRKNYLETGRGLCFPLVKACVFGNEPKASDEVPLAPRTEAAETTPMWQALKLLFCATGLQVSYLTWGVLQERVMTRSYGATATSPGERFTDSQFLVLMNRVLALIVAGLSCVLCKQPRHGAPMYRYSFASLSNVLSSWCQYEALKFVSFPTQVLAKASKVIPVMLMGKLVSRRSYEHWEYLTATLISIGVSMFLLSSGPEPRSSPATTLSGLFTVGSLLEQGALLEGTRFMGRHSEFAAHALLLSICSACGQLFIFYTIGQFGAAVFTIIMTLRQAFAILLSCLLYGHTVTVVGGLGVAVVFAALLLRVYARGRLKQRGKKAVPVESPVQKV

>  <observed value>
4.2

$$$$
>  <molecule>
16 (protein, listed as Homo sapiens) MSSLGGGSQDAGGSSSSSTNGSGGSGSSGPKAGAADKSAVVAAAAPASVADDTPPPERRNKSGIISEPLNKSLRRSRPLSHYSSFGSSGGSGGGSMMGGESADKATAAAAAASLLANGHDLAAAMAVDKSNPTSKHKSGAVASLLSKAERATELAAEGQLTLQQFAQSTEMLKRVVQEHLPLMSEAGAGLPDMEAVAGAEALNGQSDFPYLGAFPINPGLFIMTPAGVFLAESALHMAGLAEYPMQGELASAISSGKKKRKRCGMCAPCRRRINCEQCSSCRNRKTGHQICKFRKCEELKKKPSAALEKVMLPTGAAFRWFQ

>  <observed value>
3.4

$$$$
>  <molecule>
12 (protein, listed as Homo sapiens) MDHHQPGTGRYQVLLNEEDNSESSAIEQPPTSNPAPQIVQAASSAPALETDSSPPPYSSITVEVPTTSDTEVYGEFYPVPPPYSVATSLPTYDEAEKAKAAAMAAAAAETSQRIQEEECPPRDDFSDADQLRVGNDGIFMLAFFMAFIFNWLGFCLSFCITNTIAGRYGAICGFGLSLIKWILIVRFSDYFTGYFNGQYWLWWIFLVLGLLLFFRGFVNYLKVRNMSESMAAAHRTRYFFLL

>  <observed value>
2.1

$$$$

**Q:** Supply reported Reporter activity corrected with internal control, as a factor of null vector (S/B value) belonging to this molecule: 148 (protein, listed as Homo sapiens) MNHIVQTFSPVNSGQPPNYEMLKEEQEVAMLGAPHNPAPPTSTVIHIRSETSVPDHVVWSLFNTLFMNTCCLGFIAFAYSVKSRDRKMVGDVTGAQAYASTAKCLNIWALILGIFMTILLIIIPVLVVQAQR
**A:** 1.6
